FYI, the data here is from patent US20170334899A1.

Test system: HeLa
Assay: Proliferation assay (crystal violet), HeLa
Type: cell-based
Conditions: Homo sapiens, HeLa, 96 h, HeLa cells; 4 days incubation; crystal violet staining; read-out: IC50 inhibition of proliferation, HeLa
Checkbox rule: IC50 lower than 2000 nM = TRUE; IC50 not lower than 2000 nM = FALSE.

# COMPOUND, CLASS NAME
rows = [
    ("Cc1nsc(Nc2cncc(C(F)(F)F)n2)c1C(=O)Nc1ccc(OCCN)nc1 [Example 196]", "FALSE"),
    ("Cc1noc(-c2cccc(NC(=O)c3c(C)nsc3Nc3cnc4ccccc4n3)c2)n1 [Example 106]", "TRUE"),
    ("Cc1nsc(Nc2cnc3ccccc3n2)c1C(=O)Nc1ccc(OCCCNC(=O)OC(C)(C)C)nc1 [Example 42]", "FALSE"),
    ("Cc1nsc(Nc2cnc(C(F)(F)F)cn2)c1C(=O)Nc1ccc(O[C@@H]2CCCN(CC(F)(F)F)C2)nc1 [Example 386]", "TRUE"),
    ("Cc1nsc(Nc2cnc(C(F)(F)F)cn2)c1C(=O)Nc1ccc(OC2CCCN(CCF)C2)nc1 (centres unmarked) [Example 329]", "TRUE"),
    ("Cc1nsc(Nc2cc(C#N)ccn2)c1C(=O)Nc1ccc(OC2CCN(CC(F)(F)F)CC2)nc1 [Example 25]", "FALSE"),
    ("Cc1nsc(Nc2ccc(C#N)cn2)c1C(=O)Nc1cccc(NC(=O)OC(C)(C)C)c1 [Example 179]", "FALSE"),
    ("Cc1nsc(Nc2cnc(C(F)(F)F)cn2)c1C(=O)Nc1ccc(O[C@@H]2CCN(CCC(F)(F)F)C2)nc1 [Example 381]", "TRUE"),
]

====

As a worked illustration, we turn to IC50 data collected for catalytic domain of human Bub1 (amino acids 704-1085) (Homo sapiens, UniProt O43683).

# COMPOUND STRUCTURE STRING, IC50
records = [
    ("Cc1nsc(Nc2cnc(C(F)(F)F)cn2)c1C(=O)Nc1ccc(F)c(OC[C@@H]2CCN(CC(F)(F)F)C2)c1", "> 20 µM"),
    ("CCN1CCN(C(=O)c2ccc(NC(=O)c3c(C)nsc3Nc3cnc(C(F)(F)F)cn3)cc2)CC1", "> 20 µM"),
    ("Cc1nsc(Nc2cnc(C(F)(F)F)cn2)c1C(=O)Nc1ccc(F)c(OC[C@H]2CCCN(CCC(F)(F)F)C2)c1", "> 20 µM"),
    ("Cc1nsc(Nc2cnc(C(F)(F)F)cn2)c1C(=O)Nc1ccc(C2CCN(CC(F)(F)F)CC2)nc1", "> 20 µM"),
    ("Cc1nsc(Nc2cnc(C(F)(F)F)cn2)c1C(=O)Nc1ccc(OCCN(C)CCC(F)(F)F)nc1", "≥ 20 µM"),
    ("Cc1nsc(Nc2cnc3ccccc3n2)c1C(=O)Nc1cccc(C(=O)OC(C)(C)C)c1", "≥ 20 µM"),
    ("Cc1nsc(Nc2cnc(C(F)(F)F)cn2)c1C(=O)Nc1ccc(F)c(OC[C@@H]2CCN(CCC(F)(F)F)C2)c1", "> 20 µM"),
    ("Cc1nsc(Nc2cnc(C(F)(F)F)cn2)c1C(=O)Nc1ccc(OC2CCN(CC(F)(F)F)CC2)nc1", "≥ 20 µM"),
    ("Cc1nsc(Nc2cnc(C(F)(F)F)cn2)c1C(=O)Nc1ccc(F)c(OCC2CCN(CC(F)(F)F)CC2)c1", "≥ 20 µM"),
]

====

Test system: HeLa-MaTu-ADR
Assay: Proliferation assay (crystal violet), HeLa-MaTu-ADR
Type: cell-based
Conditions: 96 h; HeLa-MaTu-ADR cells; 4 days incubation; crystal violet staining; read-out: IC50 inhibition of proliferation, HeLa-MaTu-ADR
pIC50: −log10 of the molar value.
As shown below, each of these compounds has a reported pIC50 value.

# COMPOUND STRUCTURE STRING, pIC50
measured = [
    ("Cc1nsc(Nc2cnc3ccccc3n2)c1C(=O)Nc1cccc(C(=O)OC(C)(C)C)c1", 6.23),
    ("Cc1nsc(Nc2ccc(C#N)cn2)c1C(=O)Nc1ccc(Oc2cccc(C(F)(F)F)c2)nc1", 6.49),
    ("Cc1nsc(Nc2cnc(C(F)(F)F)cn2)c1C(=O)Nc1ccc(OC2CCN(CCF)CC2)nc1", 6.28),
]

====

Test system: human cervical tumor cell line HeLa (ATCC CCL-2)
Test: SAC-Formation - Nocodazole-Induced Assay
Type: cell-based
Details: Homo sapiens, HeLa, 24 h, HeLa cells, nocodazole 0.1 μg/ml together with test compound, decrease of mitotic cells (phospho-histone H3 Ser10)
Checkbox rule: IC50 lower than 0.2 µM = 1.0; IC50 not lower than 0.2 µM = 0.0.

# MOLECULE, CLASS NAME
rows = [
    ("Cc1nsc(Nc2cc(C#N)ccn2)c1C(=O)Nc1ccc(NC2CCCNC2)nc1 (centres unmarked)", 0.0),
    ("COCCCNC(=O)c1cccc(NC(=O)c2c(C)nsc2Nc2cnc3ccccc3n2)c1", 1.0),
    ("Cc1nsc(Nc2cnc3ccccc3n2)c1C(=O)Nc1ccc(C(=O)NC2CN(C(=O)OC(C)(C)C)CC(F)(F)C2)cc1 (centres unmarked)", 0.0),
    ("Cc1nsc(Nc2cnc3ccccc3n2)c1C(=O)Nc1cccc(C(=O)N2CCN(C)CC2)c1", 0.0),
    ("Cc1nsc(Nc2cnc(C(F)(F)F)cn2)c1C(=O)Nc1ccc(F)c(OCC2CCN(C(CF)CF)C2)c1 (centres unmarked)", 1.0),
]

====

Target: human kinase Mps-1 (Homo sapiens, UniProt P33981)
Construct: N-terminally GST-tagged human full length recombinant Mps-1 kinase; GST (N)
Sequence (P33981 whole entry): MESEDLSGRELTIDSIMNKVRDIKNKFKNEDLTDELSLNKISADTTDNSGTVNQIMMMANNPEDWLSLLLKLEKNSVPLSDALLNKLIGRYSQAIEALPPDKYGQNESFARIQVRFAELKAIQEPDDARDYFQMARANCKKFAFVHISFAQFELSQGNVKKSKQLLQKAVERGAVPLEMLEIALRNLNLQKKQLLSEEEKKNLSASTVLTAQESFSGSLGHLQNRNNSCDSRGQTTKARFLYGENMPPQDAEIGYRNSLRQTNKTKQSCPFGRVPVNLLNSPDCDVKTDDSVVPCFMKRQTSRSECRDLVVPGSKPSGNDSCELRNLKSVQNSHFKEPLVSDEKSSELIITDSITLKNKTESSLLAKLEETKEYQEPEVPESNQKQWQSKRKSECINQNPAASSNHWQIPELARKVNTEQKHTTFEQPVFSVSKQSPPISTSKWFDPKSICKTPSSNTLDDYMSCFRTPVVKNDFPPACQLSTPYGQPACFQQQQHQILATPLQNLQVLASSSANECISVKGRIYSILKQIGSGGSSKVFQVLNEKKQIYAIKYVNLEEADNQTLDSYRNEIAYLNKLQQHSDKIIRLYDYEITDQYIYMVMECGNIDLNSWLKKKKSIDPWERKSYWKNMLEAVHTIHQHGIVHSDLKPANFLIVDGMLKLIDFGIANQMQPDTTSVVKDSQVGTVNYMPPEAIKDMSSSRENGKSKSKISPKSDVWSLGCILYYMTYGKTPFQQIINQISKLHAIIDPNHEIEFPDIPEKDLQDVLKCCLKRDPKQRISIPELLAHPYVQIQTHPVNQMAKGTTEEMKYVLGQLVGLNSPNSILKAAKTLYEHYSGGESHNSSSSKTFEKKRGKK
Assay: Mps-1 kinase assay (TR-FRET)
Conditions: Mps-1 TR-FRET kinase assay; avg; read-out: Mps1 avg (IC50 [mol/l])
ENDPOINT NAME: IC50

# COMPOUND, ENDPOINT NAME, RECORDED VALUE
rows = [
    ("Cc1nsc(Nc2cnc3ccccc3n2)c1C(=O)Nc1ccc(OC2CCCN(CC(F)F)C2)nc1 (stereo not shown) [Example 33]", "IC50", "≥ 20 µM"),
    ("Cc1nsc(Nc2cnc(C(F)(F)F)cn2)c1C(=O)Nc1ccc(F)c(OCC2CCCN(CCF)C2)c1 (stereo not shown) [Example 336]", "IC50", "≥ 20 µM"),
    ("Cc1nsc(Nc2cnc3ccccc3n2)c1C(=O)Nc1cccc(NS(=O)(=O)C2CCN(CC(F)(F)F)CC2)c1 [Example 281]", "IC50", "> 20 µM"),
    ("Cc1nsc(Nc2cnc3ccccc3n2)c1C(=O)Nc1ccc(S(C)(=O)=O)cc1 [Example 115]", "IC50", "≥ 20 µM"),
    ("Cc1nsc(Nc2cnc(C(F)(F)F)cn2)c1C(=O)Nc1cccc(S(C)(=O)=O)c1 [Example 195]", "IC50", "> 20 µM"),
    ("Cc1nsc(Nc2cncc(C(F)(F)F)n2)c1C(=O)Nc1ccc(F)c(OC2CCN(CC(F)F)CC2)c1 [Example 268]", "IC50", "> 20 µM"),
    ("Cc1nsc(Nc2cncc(C(F)(F)F)n2)c1C(=O)Nc1ccc(C(=O)NC2CCN(CC(F)(F)F)CC2)cc1 [Example 167]", "IC50", "> 20 µM"),
    ("Cc1nsc(Nc2cnc(C(F)(F)F)cn2)c1C(=O)Nc1ccc(OCCN(C)CCC(F)(F)F)nc1 [Example 351]", "IC50", "> 20 µM"),
    ("Cc1nsc(Nc2ccc(C#N)cn2)c1C(=O)Nc1ccc(N[C@@H](C)C(=O)OC(C)(C)C)nc1 [Example 170]", "IC50", "> 20 µM"),
    ("Cc1nsc(Nc2cnc3ccccc3n2)c1C(=O)Nc1ccc(OC2CCNCC2)nc1 [Example 19]", "IC50", "≥ 20 µM"),
    ("Cc1nsc(Nc2cnc3ccccc3n2)c1C(=O)Nc1ccc(Oc2cccnc2)nc1 [Example 231]", "IC50", "> 20 µM"),
    ("Cc1nsc(Nc2cnc(C(F)(F)F)cn2)c1C(=O)Nc1ccc(OC2CCN(CCF)CC2)c(F)c1 [Example 162]", "IC50", "> 20 µM"),
    ("CC(=O)Nc1cc(NC(=O)c2c(C)nsc2Nc2ccc(C#N)cn2)ccc1F [Example 152]", "IC50", "> 20 µM"),
    ("Cc1nsc(Nc2cncc(C(F)(F)F)n2)c1C(=O)Nc1ccc(C(=O)N2CCN(CC(F)F)CC2)cc1 [Example 273]", "IC50", "> 20 µM"),
    ("CCN(CC)CCNC(=O)c1cccc(NC(=O)c2c(C)nsc2Nc2cnccn2)c1 [Example 247]", "IC50", "> 20 µM"),
    ("Cc1nsc(Nc2ccc(C#N)cn2)c1C(=O)Nc1ccc(OC2CCNCC2)nc1 [Example 28]", "IC50", "≥ 20 µM"),
    ("Cc1nsc(Nc2cnc(C(F)(F)F)cn2)c1C(=O)Nc1ccc(OCCNCC(F)(F)F)nc1 [Example 322]", "IC50", "≥ 20 µM"),
    ("Cc1nsc(Nc2cnc3ccccc3n2)c1C(=O)Nc1ccc(C(=O)N2CCCN(CC(F)(F)F)CC2)cc1 [Example 159]", "IC50", "> 20 µM"),
    ("Cc1nsc(Nc2cnccn2)c1C(=O)Nc1ccc(OC2CCCN(C(=O)OC(C)(C)C)C2)nc1 (stereo not shown) [Example 41]", "IC50", "≥ 20 µM"),
    ("Cc1nsc(Nc2cnc(C(F)(F)F)cn2)c1C(=O)Nc1ccc(C(=O)N2CCN(CC(F)(F)F)CC2)cc1 [Example 260]", "IC50", "> 20 µM"),
    ("Cc1nsc(Nc2cnc(C(F)(F)F)cn2)c1C(=O)Nc1ccc(OCCNCCC(F)(F)F)nc1 [Example 323]", "IC50", "≥ 20 µM"),
    ("Cc1nsc(Nc2cnc(C(F)(F)F)cn2)c1C(=O)Nc1ccc(O[C@H]2CCN(CCC(F)(F)F)C[C@@H]2F)nc1 [Example 364]", "IC50", "> 20 µM"),
    ("Cc1nsc(Nc2cnc(C(F)(F)F)cn2)c1C(=O)Nc1ccc(O[C@@H]2CCN(CC(F)F)C[C@H]2F)nc1 [Example 366]", "IC50", "> 20 µM"),
    ("Cc1nsc(Nc2ccc(C#N)cn2)c1C(=O)Nc1ccc(OC[C@H]2CCN(CC(F)(F)F)C2)nc1 [Example 405]", "IC50", "> 20 µM"),
    ("Cc1nsc(Nc2cnc3ccccc3n2)c1C(=O)Nc1ccc(NCCNC(=O)OC(C)(C)C)nc1 [Example 244]", "IC50", "> 20 µM"),
]
